tested on: CGS 21680-induced catalepsy in mice; assay: Activity on CGS 21680-induced Catalepsy; format: in vivo, mouse (male ddY); details: 10 mg/kg oral; catalepsy score 4 points or less in 10 cases
Structures can show the parent of a compound that is named as a salt.
observation type: Number of Animals showing remission
Simply state the number, no unit and no words.

Solved entries:
Nc1nc(N2CCOCC2)cc2nc(-c3ccco3)nn12    9
COc1ccc(OC)c(CN2CCN(c3cc4nc(-c5ccco5)nn4c(N)n3)CC2)c1    9
CCC(=O)c1cnc(N)n2nc(-c3ccco3)nc12    8
COc1cccc(OC)c1Oc1cc2nc(-c3ccco3)nn2c(N)n1    9
COc1cc(CN2CCN(c3cc4nc(-c5ccco5)nn4c(N)n3)CC2)cc(OC)c1    10
COCCOCCN1CCN(c2cc3nc(-c4ccco4)nn3c(N)n2)CC1    10
Nc1nc(N2CCN(c3ccccn3)CC2)cc2nc(-c3ccco3)nn12    8
Nc1nc(SCc2ccccc2C=O)cc2nc(-c3ccco3)nn12    10
Nc1nc(N2CCN(CCOc3ccccc3)CC2)cc2nc(-c3ccco3)nn12 [Compound 90, hydrochloride]    9
Nc1nc(N2CCN(c3ncccn3)CC2)cc2nc(-c3ccco3)nn12    10

For the compound shown here, CN1CCN(c2cc3nc(-c4ccco4)nn3c(N)n2)CC1 , give the reported Number of Animals showing remission.
10

Item Nc1nc(Oc2ccc(Cl)cc2)cc2nc(-c3ccco3)nn12 has what recorded Number of Animals showing remission?
8

For COCCN1CCN(c2cc3nc(-c4ccco4)nn3c(N)n2)CC1 , what is its reported Number of Animals showing remission?
10

Entry N#Cc1ccccc1CSc1cc2nc(-c3ccco3)nn2c(N)n1 has what Number of Animals showing remission?
2

* * *

test system: CGS 21680-induced catalepsy in mice; assay: Activity on CGS 21680-induced Catalepsy; format: in vivo, mouse (male ddY); conditions: 10 mg/kg oral, 10 animals, maximum 50 points; control 48
Field 'label' (enum: rule met / rule not met). Set to rule met when Total score (catalepsy) is strictly under 20; else rule not met.

Recorded results for 3 compounds are shown here.
COCCN1CCN(c2cc3nc(-c4ccco4)nn3c(N)n2)CC1    rule met
CCOC(=O)c1cnc(N)n2nc(-c3ccco3)nc12    rule not met
Nc1nc(SCc2ccccc2F)cc2nc(-c3ccco3)nn12    rule met

Please indicate whether the reported Total score (catalepsy) of COc1cccc(OC)c1Oc1cc2nc(-c3ccco3)nn2c(N)n1 is strictly below 20.
rule not met

In the record for CC(O)CN1CCN(c2cc3nc(-c4ccco4)nn3c(N)n2)CC1 (racemic) , is Total score (catalepsy) less than 20?
rule met

Determine if Nc1nc(N2CCN(Cc3ccccc3F)CC2)cc2nc(-c3ccco3)nn12 shows Total score (catalepsy) strictly lower than 20.
rule met

Just wondering, is Total score (catalepsy) of CNC(=O)c1cnc(N)n2nc(-c3ccco3)nc12 below 20?
rule met

* * *

biological target: adenosine A2A receptor (Rattus norvegicus, UniProt P30543); construct: from tissue; host or cells: rat corpus striatum, washed membrane suspension; assay: Adenosine receptor binding activity (adenosine A2A receptor binding test), 3H-CGS 21680 binding; settings: 2 h; 10^-8 M; read-out: A2A receptor inhibition ratio (%)
Sequence (P30543 whole entry): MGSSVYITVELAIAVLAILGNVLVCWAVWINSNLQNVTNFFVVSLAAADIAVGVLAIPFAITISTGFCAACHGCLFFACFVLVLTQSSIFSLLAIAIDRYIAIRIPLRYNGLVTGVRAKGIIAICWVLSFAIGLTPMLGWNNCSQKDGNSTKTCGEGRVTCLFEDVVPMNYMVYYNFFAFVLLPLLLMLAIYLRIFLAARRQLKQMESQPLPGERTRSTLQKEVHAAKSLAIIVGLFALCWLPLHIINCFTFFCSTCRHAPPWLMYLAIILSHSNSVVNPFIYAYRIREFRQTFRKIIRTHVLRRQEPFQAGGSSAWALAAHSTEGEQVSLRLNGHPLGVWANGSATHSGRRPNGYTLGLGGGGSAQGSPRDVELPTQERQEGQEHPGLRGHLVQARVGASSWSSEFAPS
Short version: inhibition at 0.01 µM at least 30% is met, less is not met.

The following compounds have reported results that may help.
COc1cc(OC)cc(Oc2cc3nc(-c4ccco4)nn3c(N)n2)c1    met
COc1cccc(OC)c1Oc1cc2nc(-c3ccco3)nn2c(N)n1    met
CC(c1ccccc1)N1CCN(c2cc3nc(-c4ccco4)nn3c(N)n2)CC1 (stereo not shown)    met
Nc1nc(N2CCN(Cc3ccccc3)CC2)cc2nc(-c3ccco3)nn12    met

In plain terms: is recorded inhibition at 0.01 µM at least 30% for Nc1nc(N2CCN(CC3CCCCC3)CC2)cc2nc(-c3ccco3)nn12 ?
not met

// inclusive: inhibition at 0.01 µM at least 30%? input: CN1CCN(c2cc3nc(-c4ccco4)nn3c(N)n2)CC1
not met

Hi team, for Nc1nc(N2CCN(Cc3ccc4c(c3)OCO4)CC2)cc2nc(-c3ccco3)nn12 , is the recorded inhibition at 0.01 µM at or above 30%?
not met

Would you say Nc1nc(Oc2ccc(Cl)cc2)cc2nc(-c3ccco3)nn12 shows inhibition at 0.01 µM at minimum 30%?
met

Item Nc1nc(N2CCN(Cc3cccnc3)CC2)cc2nc(-c3ccco3)nn12 with inhibition at 0.01 µM of 30% or above?
not met

Hi, just wondering whether Nc1nc(N2CCN(Cc3ccccc3Cl)CC2)cc2nc(-c3ccco3)nn12 shows inhibition at 0.01 µM of 30% or higher.
met

API: above_or_equal(metric=inhibition at 0.01 µM, cutoff=30%) for item COc1ccc(CN2CCN(c3cc4nc(-c5ccco5)nn4c(N)n3)CC2)cc1OC
met

Check this compound for inhibition at 0.01 µM at or above 30%: Nc1nc(N2CCN(Cc3ccncc3)CC2)cc2nc(-c3ccco3)nn12
not met

Please indicate if the recorded inhibition at 0.01 µM for Nc1nc(N2CCN(CCc3ccccc3)CC2)cc2nc(-c3ccco3)nn12 meets or exceeds 30%.
met

For this compound, is measured inhibition at 0.01 µM 30% or higher? Nc1nc(N2CCN(Cc3cccc(Cl)c3)CC2)cc2nc(-c3ccco3)nn12
met

Check this compound for inhibition at 0.01 µM at or above 30%: COc1ccc(CNc2nc(Sc3ccccc3)cc3nc(-c4ccco4)nn23)cc1OC
not met

Would you say Nc1nc(N2CCN(CCCc3ccccc3)CC2)cc2nc(-c3ccco3)nn12 shows inhibition at 0.01 µM at minimum 30%?
met
